Target or system Acyl-CoA: Cholesterol Acyltransferase (ACAT) (Rattus norvegicus); metric IC50; compiled from varied reports.

Check out these entries, answers already filled in.
COMPOUND: CCCCCC1C=CC(CCCCC)C(C(=O)Nc2c(Cl)cccc2Cl)S1 (stereo not shown)
TESTED_ON: Acyl-CoA: Cholesterol Acyltransferase (ACAT) (Rattus norvegicus)
Sequence (Q7TQM4 whole entry): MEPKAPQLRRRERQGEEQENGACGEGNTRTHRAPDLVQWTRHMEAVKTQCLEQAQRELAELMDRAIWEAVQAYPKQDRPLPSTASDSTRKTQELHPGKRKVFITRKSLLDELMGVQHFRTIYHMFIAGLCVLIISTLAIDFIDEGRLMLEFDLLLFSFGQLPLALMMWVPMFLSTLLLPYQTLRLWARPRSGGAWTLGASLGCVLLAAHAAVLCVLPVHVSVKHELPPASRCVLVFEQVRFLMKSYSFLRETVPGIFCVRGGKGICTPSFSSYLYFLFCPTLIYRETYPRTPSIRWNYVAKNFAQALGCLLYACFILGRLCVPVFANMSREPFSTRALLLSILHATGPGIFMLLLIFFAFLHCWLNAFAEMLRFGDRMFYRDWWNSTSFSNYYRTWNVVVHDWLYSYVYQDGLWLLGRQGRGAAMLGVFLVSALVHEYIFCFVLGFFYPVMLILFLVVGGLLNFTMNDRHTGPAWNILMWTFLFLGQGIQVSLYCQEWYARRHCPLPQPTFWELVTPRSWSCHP
OBSERVED_VALUE: < 2000 nM
--
COMPOUND: CCCCCCCCCCCCn1nnc(/C(=N\OCC)C(=O)Nc2c(C(C)C)cccc2C(C)C)n1
TESTED_ON: Acyl-CoA: Cholesterol Acyltransferase (ACAT) (Rattus norvegicus)
OBSERVED_VALUE: 49 nM
--
COMPOUND: CCCCCCSC(C(=O)Nc1c(SC)cc(C)nc1SC)c1ccc(F)cc1 (stereo not shown)
TESTED_ON: Acyl-CoA: Cholesterol Acyltransferase (ACAT) (Rattus norvegicus)
OBSERVED_VALUE: < 1000 nM
--
COMPOUND: CSc1cc(C)nc(SC)c1NC(=O)C(Sc1ccccc1)c1ccc(Cl)cc1 (stereo not shown)
TESTED_ON: Acyl-CoA: Cholesterol Acyltransferase (ACAT) (Rattus norvegicus)
OBSERVED_VALUE: < 1000 nM
--
COMPOUND: COc1ccc(SC(C(=O)Nc2c(SC)cc(C)nc2SC)c2ccc(Cl)cc2)cc1 (stereo not shown)
TESTED_ON: Acyl-CoA: Cholesterol Acyltransferase (ACAT) (Rattus norvegicus)
OBSERVED_VALUE: < 1000 nM

[in] Short answer please: IC50, Acyl-CoA: Cholesterol Acyltransferase (ACAT) (Rattus norvegicus), entry CSc1cc(C)nc(SC)c1NC(=O)C1SC(c2ccccc2)C=CC1c1ccccc1 (stereo not shown)
[out] < 2000 nM

[in] Short answer please: IC50, Acyl-CoA: Cholesterol Acyltransferase (ACAT) (Rattus norvegicus), entry CSc1cc(C)nc(SC)c1NC(=O)C(SCc1ccccc1)c1ccc(C(C)(C)C)cc1 (stereo not shown)
[out] < 1000 nM

###

Target or system Acyl-CoA: Cholesterol Acyltransferase (ACAT) (Rattus norvegicus); metric IC50; compiled from varied reports.

Check out these entries, answers already filled in.
COMPOUND: CC(C)c1cc(C(C)C)c(NS(=O)(=O)CC(=O)Oc2c(C(C)C)cccc2C(C)C)c(C(C)C)c1
IC50: > 1000 nM
//
COMPOUND: CSc1cc(C)nc(SC)c1NC(=O)C(SCc1ccccc1)c1ccc(F)cc1 (centres unmarked)
IC50: < 1000 nM
//
COMPOUND: CC(=O)O[C@H]1CC[C@]2(C)[C@H]3C(O)c4c(cc(-c5cccnc5)oc4=O)O[C@]3(C)CC[C@H]2C1(C)C (some centres unmarked)
IC50: 140000 to 150000 nM
//
COMPOUND: CC(C)c1cccc(C(C)C)c1NC(=O)C(Sc1ccccc1)c1ccccc1 (single isomer, unassigned)
IC50: 1000 to 10000 nM
//
COMPOUND: CCCCCCSC(C(=O)Nc1c(SC)cc(C)nc1SC)c1ccc2c(c1)OCO2 (centres unmarked)
IC50: < 1000 nM

[in] # IC50 lookup, item COc1ccc(CSC(C(=O)Nc2c(SC)cc(C)nc2SC)c2ccc(OC)cc2)cc1 (centres unmarked)
[out] < 1000 nM

[in] # IC50 lookup, item CCCCCCSC(C(=O)Nc1c(SC)cc(C)nc1SC)c1ccc(F)cc1F (centres unmarked)
[out] < 1000 nM

[in] # IC50 lookup, item COc1ccc(C(Sc2ccccc2)C(=O)Nc2c(SC)cc(C)nc2SC)cc1 (centres unmarked)
[out] < 1000 nM
